measuredTarget: Cytochrome P450 2D6 (Homo sapiens, UniProt P10635)
Sequence (P10635 whole entry): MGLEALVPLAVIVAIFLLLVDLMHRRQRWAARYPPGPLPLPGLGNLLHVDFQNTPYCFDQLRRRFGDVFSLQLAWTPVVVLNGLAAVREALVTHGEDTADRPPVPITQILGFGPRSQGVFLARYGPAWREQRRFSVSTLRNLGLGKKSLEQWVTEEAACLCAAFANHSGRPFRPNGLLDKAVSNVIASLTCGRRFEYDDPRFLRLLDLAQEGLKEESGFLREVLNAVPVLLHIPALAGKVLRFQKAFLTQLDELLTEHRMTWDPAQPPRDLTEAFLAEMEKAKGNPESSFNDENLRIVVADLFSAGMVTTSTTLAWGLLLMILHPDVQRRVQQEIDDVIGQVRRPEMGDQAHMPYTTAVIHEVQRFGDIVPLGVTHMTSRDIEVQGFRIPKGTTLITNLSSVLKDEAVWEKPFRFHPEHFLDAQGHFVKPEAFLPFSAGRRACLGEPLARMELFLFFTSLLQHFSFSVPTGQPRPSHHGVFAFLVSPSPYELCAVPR
recordedMetric: IC50

Problem: Input Cc1nc2ccccc2c(-c2ccc3c4c(ccnc24)CCO3)c1[C@H](OC(C)(C)C)C(=O)O , output reported IC50.
Solution: > 30 µM

---

measurementProtocol: Half life in human liver microsomes
Assay type: ADME
recordedMetric: half-life (min)
Report the value in min with no unit label.

Sample answers from the record:
compoundSmiles: Cc1nc2ccccc2c(-c2ccc3c4c(ccnc24)CCO3)c1[C@H](OC(C)(C)C)C(=O)O
half-life, min: 210
//
compoundSmiles: Cc1ccc2c(-c3ccc(Cl)cc3)c([C@H](OC(C)(C)C)C(=O)O)c(C)nc2c1
half-life, min: 25
//
compoundSmiles: Cc1ccc2c(-c3ccc4c(c3)CCCO4)c([C@H](OC(C)(C)C)C(=O)O)c(C)nc2c1
half-life, min: 66
//
compoundSmiles: Cc1ccc2c(-c3ccc4c5c(ccnc35)CCO4)c([C@H](OC(C)(C)C)C(=O)O)c(C)nc2c1
half-life, min: 210

Problem: // fetch half-life given entry Cc1ccc2c(-c3ccc4c(c3Cl)NCCO4)c([C@H](OC(C)(C)C)C(=O)O)c(C)nc2c1
Solution: 65

---

measuredTarget: Human immunodeficiency virus type 1 integrase (Human immunodeficiency virus 1, UniProt Q7ZJM1)
Sequence (Q7ZJM1 whole entry): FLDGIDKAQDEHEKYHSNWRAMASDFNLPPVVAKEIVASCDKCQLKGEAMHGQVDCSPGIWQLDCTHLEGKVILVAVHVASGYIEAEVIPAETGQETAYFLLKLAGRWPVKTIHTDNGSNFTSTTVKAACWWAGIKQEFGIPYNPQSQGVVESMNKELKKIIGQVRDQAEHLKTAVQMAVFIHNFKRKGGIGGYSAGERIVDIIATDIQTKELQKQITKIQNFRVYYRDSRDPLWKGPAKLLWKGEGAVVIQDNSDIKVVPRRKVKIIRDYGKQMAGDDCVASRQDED
recordedMetric: pKd
Field pKd (float): negative decimal logarithm of the concentration in molar.

compoundSmiles: Cc1ccc2c(-c3ccc(Cl)cc3)c([C@H](OC(C)(C)C)C(=O)O)c(C)nc2c1
pKd: 7.40

compoundSmiles: Cc1ccc2nc(C)c([C@H](OC(C)(C)C)C(=O)O)c(-c3ccc(Cl)cc3)c2c1
pKd: 7.32

compoundSmiles: Cc1nc2ccc(F)cc2c(-c2ccc(Cl)cc2)c1[C@H](OC(C)(C)C)C(=O)O
pKd: 7.21

compoundSmiles: Cc1nc2ccccc2c(-c2ccc(Cl)cc2)c1[C@H](OC(C)(C)C)C(=O)O
pKd: 7.31

Problem: Annotate the compound Cc1nc2cc(F)ccc2c(-c2ccc(Cl)cc2)c1[C@H](OC(C)(C)C)C(=O)O with its measured pKd.
Solution: 7.17

Problem: Name the recorded pKd of the item Cc1nc2ccc(Br)cc2c(-c2ccc(Cl)cc2)c1[C@H](OC(C)C)C(=O)O in your answer.
Solution: 6.55

Problem: Please indicate pKd recorded for Cc1nc2cc(Cl)ccc2c(-c2ccc(Cl)cc2)c1[C@H](OC(C)(C)C)C(=O)O
Solution: 6.85

Problem: Retrieve pKd measured for CO[C@H](C(=O)O)c1c(C)nc2ccc(Br)cc2c1-c1ccc(Cl)cc1 and print it.
Solution: 5.33

Problem: Identify the reported pKd for the following entry. Cc1nc2ccc(Br)cc2c(-c2ccc(Cl)cc2)c1[C@H](OC(C)(C)C)C(=O)O
Solution: 6.82

---

Test system: Human immunodeficiency virus 1
measurementProtocol: Antiviral activity against HIV1 NL4.3 harboring integrase N124/T125 mutant by cell based luciferase reporter gene assay
Assay type: functional, organism-based
assaySetup: Human immunodeficiency virus 1, NL4.3
recordedMetric: EC50 (nM)
Give a bare numeral; the unit nM is implied.

Problem: Recall and state the measured EC50 for Cc1nc2ccccc2c(-c2ccc3c4c(ccnc24)CCO3)c1[C@H](OC(C)(C)C)C(=O)O .
Solution: 11

---

measurementProtocol: Solubility of the compound at pH 6.8
Format: physicochemical
assaySetup: buffer
recordedMetric: solubility

Problem: Please report the measured solubility for Cc1nc2ccccc2c(-c2ccc3c4c(ccnc24)CCO3)c1[C@H](OC(C)(C)C)C(=O)O [BI-224436]
Solution: > 850 µg/mL

---

System: Human immunodeficiency virus 1
measurementProtocol: Antiviral activity against HIV1 HxB2 harboring integrase A124/T125 mutant by cell based luciferase reporter gene assay
Assay type: functional, organism-based
assaySetup: Human immunodeficiency virus 1, HxB2
recordedMetric: pEC50
Scale: negative log10 of molar concentration, which is what pEC50 denotes.

Problem: For Cc1nc2ccc(Br)cc2c(-c2ccc(Cl)cc2)c1C(C)C(=O)O (stereo not given) , write its pEC50.
Solution: 4.89

Problem: Tell us which pEC50 value is on record for Cc1ccc2c(-c3ccc4c(c3)CCCO4)c([C@H](OC(C)(C)C)C(=O)O)c(C)nc2c1
Solution: 8.15

Problem: Input Cc1nc2cc(Cl)ccc2c(-c2ccc(Cl)cc2)c1[C@H](OC(C)(C)C)C(=O)O , output reported pEC50.
Solution: 7.51

---

measuredTarget: Cytochrome P450 3A4 (Homo sapiens, UniProt P08684)
Sequence (P08684 whole entry): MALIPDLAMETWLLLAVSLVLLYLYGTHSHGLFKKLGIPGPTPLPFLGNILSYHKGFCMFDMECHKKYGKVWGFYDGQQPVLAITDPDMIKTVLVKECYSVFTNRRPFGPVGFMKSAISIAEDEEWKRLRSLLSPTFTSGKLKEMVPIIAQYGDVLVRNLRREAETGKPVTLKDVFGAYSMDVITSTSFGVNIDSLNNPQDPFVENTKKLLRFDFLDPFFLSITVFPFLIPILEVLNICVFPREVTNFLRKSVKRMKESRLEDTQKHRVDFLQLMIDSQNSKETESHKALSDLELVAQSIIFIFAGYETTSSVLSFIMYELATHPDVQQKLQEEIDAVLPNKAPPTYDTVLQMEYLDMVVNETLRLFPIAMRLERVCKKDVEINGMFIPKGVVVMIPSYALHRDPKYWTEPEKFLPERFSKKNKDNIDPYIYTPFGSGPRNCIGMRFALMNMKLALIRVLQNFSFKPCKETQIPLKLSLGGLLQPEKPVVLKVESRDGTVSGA
recordedMetric: pIC50
Note: pIC50 values are expressed as the negative base-10 logarithm of concentration in M.

Problem: Please report pIC50 with Cytochrome P450 3A4 (Homo sapiens, UniProt P08684) for item Cc1nc2ccccc2c(-c2ccc3c4c(ccnc24)CCO3)c1[C@H](OC(C)(C)C)C(=O)O [BI-224436] .
Solution: 4.64

---

measuredTarget: Human immunodeficiency virus type 1 integrase (Human immunodeficiency virus 1, UniProt Q7ZJM1)
pIC50: −log10 of the molar value.
Class criterion met: pIC50 at least 7. Class criterion not met: pIC50 below 7.

compound: Cc1nc2ccc(Br)cc2c(-c2ccc(Cl)cc2)c1C(C)C(=O)O (configuration not stated)
classLabel: criterion not met

compound: Cc1ccc(-c2c(CC(=O)O)c(C)nc3ccc(Br)cc23)cc1
classLabel: criterion not met

compound: COC(C(=O)O)c1c(C)nc2ccc(Br)cc2c1-c1ccc(Cl)cc1 (configuration not stated)
classLabel: criterion met

compound: CO[C@@H](C(=O)O)c1c(C)nc2ccc(Br)cc2c1-c1ccc(Cl)cc1
classLabel: criterion not met

compound: Cc1nc2ccc(Br)cc2c(-c2ccc(Cl)cc2)c1CC(=O)O
classLabel: criterion not met

Kindly consider the entry below.
Problem: Check if pIC50 >= 7 (inclusive). Item: CO[C@H](C(=O)O)c1c(C)nc2ccc(Br)cc2c1-c1ccc(Cl)cc1
Solution: criterion met

---

System: Human immunodeficiency virus 1
measurementProtocol: Antiviral activity against HIV1 HxB2 harboring integrase A124/T125 mutant by cell based luciferase reporter gene assay
Format: functional, organism-based
assaySetup: Human immunodeficiency virus 1, HxB2
Each entry belongs to exactly one class, chosen by where its EC50 falls: class A = under 20 nM, class B = from 20 nM up to 400 nM, class C = 400 nM and over

compound: CO[C@@H](C(=O)O)c1c(C)nc2ccc(Br)cc2c1-c1ccc(Cl)cc1
classLabel: class C

compound: Cc1ccc2c(-c3ccc4c5c(ccnc35)CCO4)c([C@H](OC(C)(C)C)C(=O)O)c(C)nc2c1
classLabel: class A

compound: Cc1nc2ccccc2c(-c2ccc3c4c(ccnc24)CCO3)c1[C@H](OC(C)(C)C)C(=O)O
classLabel: class A

Problem: Hey, which category is Cc1nc2ccccc2c(-c2ccc(Cl)cc2)c1CC(=O)O in, do you know?
Solution: class C

Problem: Lab note: sort Cc1nc2ccc(Br)cc2c(-c2ccc(Cl)cc2)c1CC(=O)O into the matching EC50 band.
Solution: class C

---

A collection of compounds and their measured pEC50
Tested on: Human immunodeficiency virus 1
measurementProtocol: Antiviral activity against HIV1 HxB2 harboring integrase A124/T125 mutant by cell based luciferase reporter gene assay
Assay type: functional, organism-based
assaySetup: Human immunodeficiency virus 1, HxB2
Keep in mind that pEC50 stands for -log10 of concentration in molar terms.

Solved entries:
compound: CO[C@H](C(=O)O)c1c(C)nc2ccc(Br)cc2c1-c1ccc(Cl)cc1
recordedMetric: pEC50
observed: 6.35

compound: COC(C(=O)O)c1c(C)nc2ccc(Br)cc2c1-c1ccc(Cl)cc1 (configuration not stated)
recordedMetric: pEC50
observed: 6.00

compound: Cc1ccc2c(-c3ccc4c(c3Cl)CCCO4)c([C@H](OC(C)(C)C)C(=O)O)c(C)nc2c1
recordedMetric: pEC50
observed: 8.70

compound: Cc1nc2ccccc2c(-c2ccc(Cl)cc2)c1[C@H](OC(C)(C)C)C(=O)O
recordedMetric: pEC50
observed: 7.64

Problem: Specify pEC50 for Cc1ccc(-c2c(CC(=O)O)c(C)nc3ccc(Br)cc23)cc1 and stop.
Solution: 4.70

Problem: Please look at this compound and report its pEC50: Cc1ccc2c(-c3cccc4cccnc34)c([C@H](OC(C)(C)C)C(=O)O)c(C)nc2c1
Solution: 7.47

Problem: Entry Cc1nc2cc(F)ccc2c(-c2ccc(Cl)cc2)c1[C@H](OC(C)(C)C)C(=O)O needs its pEC50 filled in; supply it.
Solution: 7.59

Problem: State, in one line, measured pEC50 of Cc1ccc2c(-c3ccc(Cl)cc3)c([C@H](OC(C)(C)C)C(=O)O)c(C)nc2c1
Solution: 7.89

Problem: Note down pEC50 recorded for Cc1nc2ccc(F)cc2c(-c2ccc(Cl)cc2)c1[C@H](OC(C)(C)C)C(=O)O
Solution: 7.55

Problem: Query pEC50 for Cc1ccc2nc(C)c([C@H](OC(C)(C)C)C(=O)O)c(-c3ccc(Cl)cc3)c2c1
Solution: 7.57

// data source = ChEMBL document CHEMBL3259658
